Data credit: the supplement of paper PMC9170038

tested on: K4 kissing-loop RNA reporter; experiment: apparent KD of K4 kissing-loop reporter; higher = weaker reporter binding; details: Eterna round: R107; input ligand: arginine 13.2 mM;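 also: bound reporter read as fluorescence of individual clusters on recovered sequencing chips by microscopy, with normalized cluster intensities fitted with a binding model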
attribute_measured: apparent KD of K4 kissing-loop reporter (nM)
Kindly provide the numeric value in nM only, without the unit symbol.

[ask] Given AAAUCGUUCAGAAGGAGCGUGGAUUAUUCUUAAAUAUUUAUUACGAGUGAUGUUCGUAAUUCACAGGUAGGUCGCUGAUCGAUAA [JR_ExcArginiB_Sub003] , state its recorded apparent KD of K4 kissing-loop reporter.
[reply] 137

[ask] Please do the same for CCUAUCUCGUAGGAUACCAGACUAUGAUCUAUGAUCAAUGCCAUCACCGAGUGAUGUUCGGUCCCUUGGCAGCCUAUGAGAUGGG [#13 K4 Theophylline B Exclusion] as well.
[reply] 147

[ask] Please do the same for AGACCUCAGUGAUGUUGAGGUAACACUGAUACCAGCGACUUGAUUCGCCCUUGGCAGCAGUCCACCGAGGUAUCUGAUCAGGUCA [#25 K4 Theophylline A Exclusion] as well.
[reply] 158

[ask] Please do the same for GGAUGGUAGGCGGCCGCCACUAAAAGUGAACACAUACAAGCCAGUGAUGUUGGUAUGAUGGACUAUAGGACCGGGCCUAGAUAGA [Exclusion - Tryptophan B (Freestyle 6)] as well.
[reply] 410

[ask] Please do the same for GCGCGUCAUGUCAGCGGUGACACUGUCGAUACCAGCGCCGUAAGGCGCCCUUGGCAGCGACGUGCUGGAGUGAUGUUCCAGCGUC [#2 Exclusion - Theophylline A Attempt #20 (HarryS)] as well.
[reply] 110

[ask] Please do the same for UCUCGGGCCAGUGAUGUUGGCGGCAAGUGGCGAGGACCGGUACGGCCGCCACUCGGCGCAGCAGCGGAGUGAUGUUUCGUGAGUA [Same State Tryptophan A GF 16] as well.
[reply] 1240

[ask] Please do the same for CAACAUCACAACUUCUUCGUCCUAGAAGACUAGGAUAUCAGGAAACUGAGAAGGAGUCUCUGCAGUGAUGUUGCAGCUAGGACGA [[K]'-[F2]'-[F1]'-[F1]-[F2]-[K1]-[K2]-[F]''_Design2b] as well.
[reply] 216

[ask] Please do the same for `GCGUGCCAUGCAGGAUAUAGUUGUUCGAGUGAUGUUCGAGCCUUGCUAAGUUCGGAGCAUCAGCUUCUAGAAGGGCAUGGCACGC` as well.
[reply] 205

[ask] Please do the same for AAAAGAAGAAGUGAUACCAGACAAGCAGUGAUGUUGCGCCAAAGUGAGUGAUGUUCACCAGUCCCUUGGCAGCACAUGCCAAAAG [Same State Theophylline B GF 5] as well.
[reply] 927

[ask] Please do the same for UUAGCCUAGCCAUAGUGAUGUUGUGGAAUACGAGGACCGGUACGGCCGCCACUCGCUCGACGGUGAUGACAUCAACGACCUUUAU [theeternabot_sameState_KL_Trp_A_38] as well.
[reply] 304

[ask] Please do the same for GAGUCGGCACAAGGAUAUAGGUGUAGUGAUGUUAUGUCUCCUUGACUCACUCGUUACCCUCAACGUCUAGAAGGUGUGAAUGCAG [theeternabot_exclusion_KL_FMN_B_46] as well.
[reply] 240

----------
Please go through the items and note down their apparent KD of MS2 coat protein.
system: MS2 coat protein; assay: apparent KD of MS2 coat protein; designed switch direction (-1 OFF switch, 1 ON switch): -1; higher = weaker reporter binding; conditions: Eterna round: R95; input ligand: microRNA oligo, concentration not stated
Kindly provide the numeric value in nM only, without the unit symbol.

[ask] Given GGUCCACAUGAGGAUCACCCAUGUUAGGAUAUCUCCCGCCUCCUCACUAGAGGCGGACAGAGAAGGAACAUCAA [Raerge] (puzzle: Exclusion 1) , state its recorded apparent KD of MS2 coat protein.
[reply] 23.2

[ask] Please do the same for CAUGAUCUUCGGAUCAUGUACAUGAGGAUCACCCAUGUUACGAGCAGAUUUUCAUACAAGCUUUUUGCUCGUCUUAU [Sensor v3 - Turn-off variant 1 - 31] (puzzle: Sensor v3, turn-off variant 1) as well.
[reply] 67.3

[ask] Please do the same for AAAAGGACAGGAUAUUCGACUCGCAACAUGAGGAUCACCCAUGUGGUCGUCCAGUCGCUCGAAGAAGGGUUAAAAC [Cegeesbe] (puzzle: Exclusion 5) as well.
[reply] 26.7

[ask] Please do the same for GCGAAAACAAACAGGUGAAACAUGAGGAUCACCCAUGUCCUCAUUUGCUCGUCUUAUAAGCUAUGCGAAAGCAUAGC [Mat - Sensor v3 - turn-off var 1 - Eli Mod - D55] (puzzle: Sensor v3, turn-off variant 1) as well.
[reply] 200

[ask] Please do the same for UUUUUCGAACAAGCAUCGAACAUGAGGAUCACCCAUGUAGGUAGAUUUGAGUAGGUAUGGAAGUAAGCUCGUCUUAU [JR_SV3TOV1_Sub080] (puzzle: Sensor v3, turn-off variant 1) as well.
[reply] 107

----------
tested on: MS2 coat protein; experiment: apparent KD of MS2 coat protein, switch OFF state (with FMN for OFF switches, without FMN for ON switches); designed switch direction (-1 OFF switch, 1 ON switch): -1; higher = weaker reporter binding; conditions: FMN input: 0 or 200 uM; Eterna round: R93 (includes R88 designs)
Please go through the items and note down their apparent KD of MS2 coat protein.
Kindly provide the numeric value in nM only, without the unit symbol.

[ask] Given UCCAGACAUGAGGAUCACCCAUGUCAGGAUAUCUAGAAAACCUCAUGUAAAAAAAACUAGAGAAGGGAUAUGAA [Design 96: Pseudoknot F] , state its recorded apparent KD of MS2 coat protein.
[reply] 15.7

[ask] Please do the same for AAAAAGGCAGGAUAUACAAAAAAAUUUUUAAAAAAAAAAAAACAUGAGGAUCACCCAUGUAGAAGGGCCAAAAA [Ex 2.1] as well.
[reply] 43.3

[ask] Please do the same for AAAAAACAUGAGGAUCACCCAUGUUAGGAUAUCCUGCAGAAAAAAAAAAAAAACUGCAGGAGAAGGAGCAAGGA [Banishment 3 - Jieux - Exclusion 1] as well.
[reply] 44.5

----------
Please go through the items and note down their apparent KD of MS2 coat protein.
tested on: MS2 coat protein; experiment: apparent KD of MS2 coat protein, switch OFF state (with FMN for OFF switches, without FMN for ON switches); designed switch direction (-1 OFF switch, 1 ON switch): -1; higher = weaker reporter binding; details: FMN input: 0 or 200 uM; Eterna round: R93 (includes R88 designs)
Kindly provide the numeric value in nM only, without the unit symbol.

[ask] Given GAAACUGGAGGAUAUACGAACAUGUCAAAAGACGUGAAGGGACAUGAGGAUCACCCAUGUAGAAGGCUAGAAAG [Mat - Exclusion 2 - JL mod - D99] , state its recorded apparent KD of MS2 coat protein.
[reply] 22.4

[ask] Please do the same for AGGAAACAUGAGGAUCACCCAUGUGAGGAUAUUCAAAAGAAAAGAAAAGAAAGAAGAAGAAGAAGGUACAAGAA [Neferefre] as well.
[reply] 29.9

[ask] Please do the same for AUAAACAGAGGAUAUACGCGGAUUAUUGAAAUUAUUGAUUCACAUGAGGAUCACCCAUGUAGAAGGCUGGAAAA [LROPPY Exclusion 2 - v04_doubled Us] as well.
[reply] 124

[ask] Please do the same for ACAGUUACAGGAUAUACAUGGGAAAAUAAAAAUAAAAAACUACAUGAGGAUCACCCAUGUAGAAGGGUAACUGA [Ex2 Design 198: Random 13] as well.
[reply] 26.6

[ask] Please do the same for AAAUUGUCAGGAUAUCGUAUAAUAUGGAAAACAUAGAGAUACGAGAAGGGACAUGAGGAUCACCCAUGUAAAAC [May 96] as well.
[reply] 31.1

[ask] Please do the same for AAACAACAUGAGGAUCACCCAUGUCAGGAUAUGAACGAAAAUAAAUAAAAAUAAAAGUUCAGAAGGGACGAAAA [66%, Wbt, 16] as well.
[reply] 49.7

[ask] Please do the same for UAUAGACAUGAGGAUCACCCAUGUGAGGAUAUCAGUAACUACAAAACAUCACAUACAAUGAGAAGGCACAGAAA [JR_Exc001_Sub014] as well.
[reply] 49.8

[ask] Please do the same for AAGAAGUGAGGAUAUACAAAAUAAAAGAAAAGAAAGAAAGAACAUGAGGAUCACCCAUGUAGAAGGCACAAGAA [Sekhemkare Amenemhat V] as well.
[reply] 17.8

[ask] Please do the same for GUAAACCUAGGAUAUACAUGAGGAUCACCCAUGUAAAAAUUAAUAAAAAGAAAAACAAGUAGAAGGAGGUAGAU [JR_Exc003_Sub1225] as well.
[reply] 20.8

[ask] Please do the same for AAAUUAGGAGGAUAUACAUGAGGAUCACCCAUGUGACGAUGUUACUGCAUGAAGUCAAGUAGAAGGUCUAAGAA [Cearar] as well.
[reply] 44.2

[ask] Please do the same for AAGAAGUGAGGAUAUACAUGAGGAUCACCCAUGUUAAGAAGAAUUUUAGAGAAAGAAGGUAGAAGGCACAAGAA [JR_Exclusion3_Sub5] as well.
[reply] 35.3

[ask] Please do the same for AAGAAGGCAGGAUAUACAAAAUAAAAGAAAAGAAAGAAAGAACAUGAGGAUCACCCAUGUAGAAGGGUCAAGAA [Sankhenre Sewadjtu] as well.
[reply] 37.2

[ask] Please do the same for AAGAAGCAAGGAUAUACUAAAGAAAUGAAAAGAAAUAAAGAACAUGAGGAUCACCCAUGUAGAAGGUGCAAGAA [Webenre] as well.
[reply] 39.3
